B1: Zinc finger MYM-type protein 2, residues 463 to 506; numbered along this chain, Q9UBW7 (parent)
chain: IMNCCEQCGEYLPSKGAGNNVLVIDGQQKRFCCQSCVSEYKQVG

variants of: B1; assay: abundance fitness (aPCA) (normalised: wild type 0, dead -1); higher = more abundant; growth selection in yeast, the domain comes from the species named; settings: Homo sapiens
RESULT_TYPE: abundance fitness
One number for each entry.

>>> readout_number("V43H")
-0.361
>>> readout_number("Y40R")
-0.037
>>> readout_number("V21D")
-0.014
>>> readout_number("Q27E")
-0.1
>>> readout_number("F31A")
-0.175
>>> readout_number("C36F")
-0.665
>>> readout_number("M2Q")
-0.141
>>> readout_number("Y11T")
0.319

Report abundance fitness for each item below.
1. V37K
2. V37T

OUTPUT:
1. -0.101
2. 0.049

Here are 6 variants. What values of abundance fitness were reported for them?
1. Q27S
2. E10S
3. C8Q
4. A17V
5. G16M
6. I1G

OUTPUT:
1. -0.172
2. -0.358
3. -0.573
4. -0.223
5. 0.007
6. -0.15

Hello, I would appreciate it if you could give abundance fitness for each entry below.
1. G18C
2. V23E
3. L22I

OUTPUT:
-0.247
0.204
-0.142

Each of the following entries comes with a recorded value; kindly state abundance fitness for each.
1. V21L
2. Y11D
3. Q7T

OUTPUT:
-0.162
0.282
-0.139
